tested on: human acute promyelocytic leukemia cells (HL-60); assay: Differentiation of HL-60 cells, morphological changes of nuclei (Wright-Giemsa); format: cell-based; details: HL-60, 4 days; test concentration not stated
Measured endpoint: Banded and Segmented Neutrophils (%)
Write down the numeric answer in % and omit the unit.

Reference set, count: 3
[
  {
    "Compound": "CC(C)c1ccc(NC(=O)c2ccc(C(=O)O)cc2)cc1C(C)C",
    "Measured endpoint": "Banded and Segmented Neutrophils",
    "Test result": 11
  },
  {
    "Compound": "CC1=C(/C=C/C(C)=C/C=C/C(C)=C/C(=O)O)C(C)(C)CCC1 [Retinoic acid, reference compound]",
    "Measured endpoint": "Banded and Segmented Neutrophils",
    "Test result": 4
  },
  {
    "Compound": "CCc1ccc(C(=O)C=Cc2ccc(C(=O)OC)cc2)cc1CC [H Et Et H H OCH3 drawing 7]",
    "Measured endpoint": "Banded and Segmented Neutrophils",
    "Test result": 8
  }
]

Incoming: Which measured Banded and Segmented Neutrophils value corresponds to COC(=O)c1ccc(C2OC2c2cccc(C(C)(C)C)c2)cc1 (stereo not drawn) [H tBu H H H OCH3 drawing 9] ?
Outgoing: 9

Incoming: Which measured Banded and Segmented Neutrophils value corresponds to COC(=O)c1ccc(C2OC2c2ccc3c(c2)C(C)(C)CCC3(C)C)cc1 (stereo not drawn) [H drawing 10 H H OCH3 drawing 9] ?
Outgoing: 18

Incoming: Which measured Banded and Segmented Neutrophils value corresponds to CC(C)(C)c1ccc(C(=O)C=Cc2ccc(C(=O)O)cc2)cc1 ?
Outgoing: 6

Incoming: Which measured Banded and Segmented Neutrophils value corresponds to CC(C)(C)c1cc(C(=O)C=Cc2ccc(C(=O)O)cc2)cc(C(C)(C)C)c1 ?
Outgoing: 16

Incoming: Which measured Banded and Segmented Neutrophils value corresponds to CC1(C)CCC(C)(C)c2cc(NC(=O)c3ccc(C(=O)O)cc3)ccc21 ?
Outgoing: 19

Incoming: Which measured Banded and Segmented Neutrophils value corresponds to CC(C)c1ccc(N=Nc2ccc(C(=O)O)cc2)cc1C(C)C ?
Outgoing: 11

Incoming: Which measured Banded and Segmented Neutrophils value corresponds to COC(=O)c1ccc(C2OC2(C)c2ccc3c(c2)C(C)(C)CCC3(C)C)cc1 (stereo not drawn) [H drawing 10 H H OCH3 drawing 11] ?
Outgoing: 9

Incoming: Which measured Banded and Segmented Neutrophils value corresponds to COC(=O)c1ccc(N=Nc2ccc3c(c2)C(C)(C)CCC3(C)C)cc1 ?
Outgoing: 10

Incoming: Which measured Banded and Segmented Neutrophils value corresponds to COC(=O)c1ccc(C=CC(=O)c2ccc3c(c2)C(C)(C)CCC3(C)C)cc1 ?
Outgoing: 4

Incoming: Which measured Banded and Segmented Neutrophils value corresponds to CC1(C)CCC(C)(C)c2cc([N+]([O-])=Nc3ccc(C(=O)O)cc3)ccc21 [H drawing 12 H H OH drawing 13] ?
Outgoing: 7

Incoming: Which measured Banded and Segmented Neutrophils value corresponds to CC1(C)CCC(C)(C)c2cc(C(=O)C=Cc3ccc(C(=O)O)cc3)ccc21 ?
Outgoing: 12

Incoming: Which measured Banded and Segmented Neutrophils value corresponds to COC(=O)c1ccc(C(=O)Nc2ccc3c(c2)C(C)(C)CCC3(C)C)cc1 ?
Outgoing: 12

* * *

System: human acute promyelocytic leukemia cells (HL-60)
Test: Differentiation of HL-60 cells, morphological changes of nuclei (Wright-Giemsa)
Assay type: cell-based
Conditions: HL-60, 4 days; test concentration not stated
Method: The HL-60 cells are cultured in plastic flasks in RPMI-1640 medium supplemented with 5% heat inactivated fetal calf serum and antibiotics (penicillin G and streptomycin). The cells (3×10^4 /ml) were cultured with a compound of the present invention for 4 days. Growth inhibition of the cells by the test compounds was determined by counting the number of cells by microscope and relative ratio was examined by taking the number of cells by control (without test compound) as 100%. […]
Label t when Myelocytes and Metamyelocytes >= 70%; otherwise f.

[
  {
    "Compound": "COC(=O)c1ccc(N=Nc2ccc3c(c2)C(C)(C)CCC3(C)C)cc1 [No. 57]",
    "Group label": "f"
  },
  {
    "Compound": "CC1(C)CCC(C)(C)c2cc(C(=O)C=Cc3ccc(C(=O)O)cc3)ccc21 [No. 11]",
    "Group label": "t"
  },
  {
    "Compound": "CC1(C)CCC(C)(C)c2cc(NC(=O)c3ccc(C(=O)O)cc3)ccc21 [No. 35]",
    "Group label": "t"
  },
  {
    "Compound": "COC(=O)c1ccc(C=CC(=O)c2ccc3c(c2)C(C)(C)CCC3(C)C)cc1 [No. 13]",
    "Group label": "t"
  },
  {
    "Compound": "CC(C)(C)c1cc(C(=O)C=Cc2ccc(C(=O)O)cc2)cc(C(C)(C)C)c1 [No. 8]",
    "Group label": "t"
  },
  {
    "Compound": "CC(C)(C)c1ccc(C(=O)C=Cc2ccc(C(=O)O)cc2)cc1 [No. 9]",
    "Group label": "f"
  }
]

Incoming: Assess whether reported Myelocytes and Metamyelocytes for COC(=O)c1ccc(C(=O)Nc2ccc3c(c2)C(C)(C)CCC3(C)C)cc1 [No. 34] sits at 70% or higher.
Outgoing: t

Incoming: Assess whether reported Myelocytes and Metamyelocytes for CC1(C)CCC(C)(C)c2cc([N+]([O-])=Nc3ccc(C(=O)O)cc3)ccc21 [H drawing 12 H H OH drawing 13] sits at 70% or higher.
Outgoing: f

Incoming: Assess whether reported Myelocytes and Metamyelocytes for COC(=O)c1ccc(C2OC2c2ccc3c(c2)C(C)(C)CCC3(C)C)cc1 (stereo not drawn) [H drawing 10 H H OCH3 drawing 9] sits at 70% or higher.
Outgoing: f

Incoming: Assess whether reported Myelocytes and Metamyelocytes for COC(=O)c1ccc(C2OC2(C)c2ccc3c(c2)C(C)(C)CCC3(C)C)cc1 (stereo not drawn) [H drawing 10 H H OCH3 drawing 11] sits at 70% or higher.
Outgoing: t

Incoming: Assess whether reported Myelocytes and Metamyelocytes for CCc1ccc(C(=O)C=Cc2ccc(C(=O)OC)cc2)cc1CC [H Et Et H H OCH3 drawing 7] sits at 70% or higher.
Outgoing: f

Incoming: Assess whether reported Myelocytes and Metamyelocytes for CC(C)c1ccc(N=Nc2ccc(C(=O)O)cc2)cc1C(C)C [No. 50] sits at 70% or higher.
Outgoing: f

Incoming: Assess whether reported Myelocytes and Metamyelocytes for CC(C)c1ccc(NC(=O)c2ccc(C(=O)O)cc2)cc1C(C)C [No. 30] sits at 70% or higher.
Outgoing: t

* * *

Listed below: Promyelocytes values for each entry.
System: human acute promyelocytic leukemia cells (HL-60)
Experiment: Differentiation of HL-60 cells, morphological changes of nuclei (Wright-Giemsa)
Format: cell-based
Conditions: HL-60, 4 days; test concentration not stated
Description: The HL-60 cells are cultured in plastic flasks in RPMI-1640 medium supplemented with 5% heat inactivated fetal calf serum and antibiotics (penicillin G and streptomycin). The cells (3×10^4 /ml) were cultured with a compound of the present invention for 4 days. Growth inhibition of the cells by the test compounds was determined by counting the number of cells by microscope and relative ratio was examined by taking the number of cells by control (without test compound) as 100%. […]
Write down the numeric answer in % and omit the unit.

Reference set, count: 2
[
  {
    "Compound": "CC1(C)CCC(C)(C)c2cc([N+]([O-])=Nc3ccc(C(=O)O)cc3)ccc21 [H drawing 12 H H OH drawing 13]",
    "System": "human acute promyelocytic leukemia cells (HL-60)",
    "Units symbol": "%",
    "Test result": 40
  },
  {
    "Compound": "CC1(C)CCC(C)(C)c2cc(NC(=O)c3ccc(C(=O)O)cc3)ccc21",
    "System": "human acute promyelocytic leukemia cells (HL-60)",
    "Units symbol": "%",
    "Test result": 3
  }
]

Incoming: Which measured Promyelocytes value corresponds to CC1(C)CCC(C)(C)c2cc(C(=O)C=Cc3ccc(C(=O)O)cc3)ccc21 ?
Outgoing: 2

Incoming: Which measured Promyelocytes value corresponds to CC(C)(C)c1cc(C(=O)C=Cc2ccc(C(=O)O)cc2)cc(C(C)(C)C)c1 ?
Outgoing: 2

Incoming: Which measured Promyelocytes value corresponds to COC(=O)c1ccc(C2OC2c2cccc(C(C)(C)C)c2)cc1 (stereo not drawn) [H tBu H H H OCH3 drawing 9] ?
Outgoing: 20

Incoming: Which measured Promyelocytes value corresponds to COC(=O)c1ccc(C(=O)Nc2ccc3c(c2)C(C)(C)CCC3(C)C)cc1 ?
Outgoing: 3

Incoming: Which measured Promyelocytes value corresponds to CCc1ccc(C(=O)C=Cc2ccc(C(=O)OC)cc2)cc1CC [H Et Et H H OCH3 drawing 7] ?
Outgoing: 38

Incoming: Which measured Promyelocytes value corresponds to COC(=O)c1ccc(N=Nc2ccc3c(c2)C(C)(C)CCC3(C)C)cc1 ?
Outgoing: 41

Incoming: Which measured Promyelocytes value corresponds to CC(C)c1ccc(NC(=O)c2ccc(C(=O)O)cc2)cc1C(C)C ?
Outgoing: 7

Incoming: Which measured Promyelocytes value corresponds to COC(=O)c1ccc(C=CC(=O)c2ccc3c(c2)C(C)(C)CCC3(C)C)cc1 ?
Outgoing: 5

Incoming: Which measured Promyelocytes value corresponds to COC(=O)c1ccc(C2OC2(C)c2ccc3c(c2)C(C)(C)CCC3(C)C)cc1 (stereo not drawn) [H drawing 10 H H OCH3 drawing 11] ?
Outgoing: 12

Incoming: Which measured Promyelocytes value corresponds to COC(=O)c1ccc(C2OC2c2ccc3c(c2)C(C)(C)CCC3(C)C)cc1 (stereo not drawn) [H drawing 10 H H OCH3 drawing 9] ?
Outgoing: 19

Incoming: Which measured Promyelocytes value corresponds to CC(C)c1ccc(N=Nc2ccc(C(=O)O)cc2)cc1C(C)C ?
Outgoing: 39

Incoming: Which measured Promyelocytes value corresponds to CC1=C(/C=C/C(C)=C/C=C/C(C)=C/C(=O)O)C(C)(C)CCC1 [Retinoic acid, reference compound] ?
Outgoing: 25

Incoming: Which measured Promyelocytes value corresponds to CC(C)(C)c1ccc(C(=O)C=Cc2ccc(C(=O)O)cc2)cc1 ?
Outgoing: 46
